melting point overview
experimental.endpoint: melting point

[
  {
    "compound": "Cc1ccnc2c1C(=O)CC(c1cc(Cl)ccc1Cl)C2 (stereo not given)",
    "result": "116 to 117 °C"
  },
  {
    "compound": "O=C1C=C(c2ccccc2)S(=O)(=O)C(c2cccs2)=C1",
    "result": "162 to 164 °C"
  },
  {
    "compound": "Cc1cc(OCc2ccc(-c3ccc(OC(F)(F)F)cc3)nc2C)ccc1OC(C)(C)C(=O)O",
    "result": "149 to 151 °C"
  },
  {
    "compound": "CC1(c2ccccc2)SC(=S)N(Nc2ccccc2)C1=NOC(=O)Nc1ccc(Cl)c(Cl)c1 (stereo not given)",
    "result": "95 to 96 °C"
  },
  {
    "compound": "CC(C)(C)C(=O)C(O)C(OS(=O)(=O)C(F)(F)F)C1OC(O)(C(=O)C(C)(C)C)C(O)(C(=O)C(C)(C)C)C1(O)C(=O)C(C)(C)C (stereo not given)",
    "result": "109 to 112 °C"
  },
  {
    "compound": "O=C(C=CC=C(c1ccccc1)c1ccccc1)NCCCCCC(=O)NO",
    "result": "167 to 169 °C"
  },
  {
    "compound": "CCOC(=O)CC(Cc1ccccc1)NC(=O)c1ccc(OC)cc1 (stereo not given)",
    "result": "102 to 104 °C"
  },
  {
    "compound": "O=S(=O)(Nc1ccc2c(OCc3coc(-c4ccc(C(F)(F)F)cc4)n3)cccc2c1)C(F)(F)F",
    "result": "205 to 207 °C"
  },
  {
    "compound": "O=C1N(Cc2ccc(=O)[nH]c2)c2ccccc2C12COc1cc3c(cc12)OCCO3 (stereo not given)",
    "result": "249 to 250 °C"
  },
  {
    "compound": "O=C(NCCCCN1CCC(c2c[nH]c3ccccc23)CC1)c1ccc(-c2ccc(C(F)(F)F)cc2)c(CO)c1",
    "result": "177 °C"
  },
  {
    "compound": "CC(C)n1nc(-c2cc(-c3ccccc3)c(N)nc2-c2ccccc2)ccc1=O",
    "result": "208 to 209 °C"
  },
  {
    "compound": "CC(=O)OCC1CC(OC(C)=O)C(n2cc(C(Cl)=CI)c(=O)[nH]c2=O)O1 (stereo not given)",
    "result": "87 to 89 °C"
  },
  {
    "compound": "Cc1nc2n(c(=O)c1CCBr)CCCS2",
    "result": "215 °C"
  },
  {
    "compound": "CCOc1cc(C=C2SC(=S)N(N(C)C)C2=O)ccc1O",
    "result": "194 to 198 °C"
  },
  {
    "compound": "COc1ccc(-c2[nH]nc3c2C(=O)c2c(NC(=O)NNC(=O)c4ccccc4N)cccc2-3)cc1",
    "result": "257 °C"
  }
]

###

melting point overview
experimental.endpoint: melting point

[
  {
    "molecule": "COc1nc(OC)nc(C2(c3nc(OC)nc(OC)n3)OC(=O)c3c(Cl)cccc32)n1",
    "experimental.endpoint": "melting point",
    "result": "126 to 127 °C"
  },
  {
    "molecule": "COC(=O)CC(C#N)c1cccc2ccc(OC)cc12 (stereo not drawn)",
    "experimental.endpoint": "melting point",
    "result": "113 to 114 °C"
  },
  {
    "molecule": "CCC12CCC3C4=C(CCC3C1CCC2=O)CC(OC)=CC4 (stereo not drawn)",
    "experimental.endpoint": "melting point",
    "result": "126 to 143 °C"
  }
]

###

melting point overview

[
  {
    "molecule": "CCCCOc1c(-c2ccnc3ccc(C(C)=O)cc23)cc(C(C)C)cc1C(C)C",
    "melting point": "133 °C"
  },
  {
    "molecule": "O=c1c2ccccc2cc(Br)c2ccncc12",
    "melting point": "167 to 169 °C"
  },
  {
    "molecule": "Nc1ncc(C2CCN(c3ccc(Cl)cc3)CC2)c(N)n1",
    "melting point": "254 to 255 °C"
  },
  {
    "molecule": "O=C(CCCN1CCN(c2ccc(CO)c(Cl)c2)CC1)c1cccs1",
    "melting point": "131 to 133 °C"
  },
  {
    "molecule": "CC(=O)OCc1nnc(-c2ccc3occ(-c4cccc(OC(F)(F)F)c4)c3c2)o1",
    "melting point": "93 to 94 °C"
  },
  {
    "molecule": "CC(=O)c1ccc(N2CCC(N(C)Cc3ccc(F)cc3)CC2)cc1",
    "melting point": "133 °C"
  },
  {
    "molecule": "C(=C\\c1nc(COc2ccc(CCCn3ccnc3)cn2)co1)/c1ccccc1",
    "melting point": "120 to 121 °C"
  },
  {
    "molecule": "Nc1nccc(Oc2ccc3c(C(=O)Nc4ccc(F)c(C(F)(F)F)c4)cccc3c2)n1",
    "melting point": "205 °C"
  },
  {
    "molecule": "NC(=S)NN=C(CCC(=O)NCc1ccccc1)c1ccccc1",
    "melting point": "162 to 164 °C"
  },
  {
    "molecule": "O=C(c1ccccc1)c1ccc(OCCCCBr)cc1",
    "melting point": "42 to 43 °C"
  },
  {
    "molecule": "CCCCCCN(C=CC=C(C#N)C#N)CCCCCC",
    "melting point": "112 to 113 °C"
  },
  {
    "molecule": "O=C(O)c1ccc(-c2ccc(-c3ccc(Cl)cc3)s2)cc1",
    "melting point": "285 to 286 °C"
  },
  {
    "molecule": "Nc1nc(N)c2cc(C=Cc3ccc(C(=O)O)cc3)cnc2n1",
    "melting point": "> 300 °C"
  },
  {
    "molecule": "COc1ccccc1COc1ccc(S(=O)(=O)c2cnc(C)nc2Nc2c(C)cc(C)cc2C)cc1",
    "melting point": "200 to 202 °C"
  },
  {
    "molecule": "Cc1ccccc1C(=O)Nc1ccc(C(=O)N2CCCC(NC(=O)Nc3ccccc3)c3ccccc32)cc1 (stereo unspecified)",
    "melting point": "269 to 271 °C"
  },
  {
    "molecule": "ON=Cc1ccc2c(c1)ncn2-c1cccc(CNCc2ccc(F)c(F)c2)c1",
    "melting point": "165 to 167 °C"
  },
  {
    "molecule": "CC1(C)COC(=O)N1c1nc(-c2cccc([N+](=O)[O-])c2)cs1",
    "melting point": "> 210 °C"
  },
  {
    "molecule": "CC(C)(C)OC(=O)N[C@@H](CO)C(=O)N[C@@H](CCC(=O)OCc1ccccc1)C(=O)OCc1ccccc1",
    "melting point": "93 to 95 °C"
  },
  {
    "molecule": "S=C(NC(=Nc1ccccc1)c1ccccc1)Nc1ccccc1",
    "melting point": "143 to 144 °C"
  },
  {
    "molecule": "c1cc(-c2cnn3cc(-c4ccc(OCCN5CCCCC5)cc4)cnc23)cs1",
    "melting point": "141 to 143 °C"
  },
  {
    "molecule": "C#CCN1C(=O)CCC1C(N)=O (stereo unspecified)",
    "melting point": "145 to 147 °C"
  }
]

###

experimental.endpoint: melting point

[
  {
    "molecule": "Cc1ccc(Cl)cc1NC(=S)Nc1c(C)nn(C)c1C",
    "experimental.endpoint": "melting point",
    "result": "176 to 177 °C"
  },
  {
    "molecule": "CC(=O)N1c2cc(Cl)ccc2OP1c1ccccc1 (stereo not given)",
    "experimental.endpoint": "melting point",
    "result": "56 to 58 °C"
  },
  {
    "molecule": "CN(c1n[nH]c2ncnc(Nc3cccc(Cl)c3)c12)C1CCCCC1",
    "experimental.endpoint": "melting point",
    "result": "188 to 190 °C"
  },
  {
    "molecule": "COc1c(C)c(C(=O)c2ccc3nc(C)[nH]c(=O)c3c2)n2ccccc12",
    "experimental.endpoint": "melting point",
    "result": "290 °C"
  },
  {
    "molecule": "COc1ccc2c(C)nc(=O)[nH]c2c1",
    "experimental.endpoint": "melting point",
    "result": "251 to 254 °C"
  },
  {
    "molecule": "CC(C)(C)c1cc(SCc2nc3cccnc3[nH]2)cc(C(C)(C)C)c1O",
    "experimental.endpoint": "melting point",
    "result": "241 to 242 °C"
  },
  {
    "molecule": "CCCCCC(=O)NCc1ccc(C(=O)O)cc1",
    "experimental.endpoint": "melting point",
    "result": "178 to 179 °C"
  },
  {
    "molecule": "CCOC(=O)C1=C(C)NC(c2ncc[nH]2)=NC1c1ccc(F)cc1Cl (stereo not given)",
    "experimental.endpoint": "melting point",
    "result": "157 to 162 °C"
  },
  {
    "molecule": "Cc1oc(-c2ccccc2)nc1COc1ccc(CON=C(CCCC(=O)O)c2ccccc2)cc1",
    "experimental.endpoint": "melting point",
    "result": "129 to 130 °C"
  },
  {
    "molecule": "CCCc1nn(C)c2c(=O)[nH]c(-c3cc(Br)ccc3OCC)nc12",
    "experimental.endpoint": "melting point",
    "result": "157 to 159 °C"
  },
  {
    "molecule": "CCOC(=O)[C@H]1CCC(=O)[C@@H](n2nc(-c3c(-c4ccccc4)nn4ccccc34)ccc2=O)C1 (relative stereo)",
    "experimental.endpoint": "melting point",
    "result": "160 to 162 °C"
  },
  {
    "molecule": "Oc1ccccc1OCC(F)(F)F",
    "experimental.endpoint": "melting point",
    "result": "49 to 50 °C"
  },
  {
    "molecule": "Cc1cc(Cn2c(-c3ccccc3)nc(Cl)c2C=O)ccc1OCc1ccccc1",
    "experimental.endpoint": "melting point",
    "result": "135 to 136 °C"
  },
  {
    "molecule": "CCOC(=O)c1cn(C2CC2)c2c(C)c(N3CCN(C)CC3)c(F)c(C)c2c1=O",
    "experimental.endpoint": "melting point",
    "result": "146 to 147 °C"
  },
  {
    "molecule": "O=C1NC(=O)C(S(=O)(=O)c2ccc3ccccc3n2)S1 (stereo not given)",
    "experimental.endpoint": "melting point",
    "result": "168 to 169 °C"
  }
]
